Test system: biotin-Py24 (VEGF i-motif) (DNA, i motif) GACCCCGCCCCCGGCCCGCCCCGG
TEST: SPR
CONDITION_NOTES: 100 mM KCl; 20 mM MES pH 5.5, 0.05% Tween-20, 25 °C
PARAMETER: KD (µM)

Here's what some known entries look like.
{"columns": ["COMPOUND_STRING", "ASSAYED_TARGET", "UNITS_OF_MEASURE", "KD"],
 "data": [
  ["COC(=O)[C@]12CCC(C)(C)C[C@H]1[C@H]1C(=O)C[C@@H]3[C@@](C)(CCC(=O)NCCCN4CCOCC4)[C@H](C(C)(C)O)CC[C@@]3(C)[C@]1(C)CC2", "biotin-Py24 (VEGF i-motif) (DNA, i motif) GACCCCGCCCCCGGCCCGCCCCGG", "µM", 31.3],
  ["CC1(C)CC[C@]2(C(=O)NCc3cn(-c4ncccn4)nn3)CC[C@]3(C)C(=CC[C@@H]4[C@@]5(C)CC[C@H](O)C(C)(C)[C@@H]5CC[C@]43C)[C@@H]2C1", "biotin-Py24 (VEGF i-motif) (DNA, i motif) GACCCCGCCCCCGGCCCGCCCCGG", "µM", 12.3]
]}

[A] COC(=O)[C@]12CCC(C)(C)C[C@H]1[C@H]1C(=O)C[C@@H]3[C@@](C)(CCC(=O)NCCCn4ccnc4)[C@H](C(C)(C)O)CC[C@@]3(C)[C@]1(C)CC2
[B] CC1(C)CC[C@]2(C(=O)NCCNC(=O)/C=C/c3ccc(O)c(O)c3)CC[C@]3(C)C(=CC[C@@H]4[C@@]5(C)CC[C@H](O)C(C)(C)[C@@H]5CC[C@]43C)[C@@H]2C1
[C] CC1(C)CC[C@]2(C(=O)NCCNS(=O)(=O)N3CCOCC3)CC[C@]3(C)C(=CC[C@@H]4[C@@]5(C)CC[C@H](O)C(C)(C)[C@@H]5CC[C@]43C)[C@@H]2C1
Inquiry: Rank by KD (largest to smallest). I'd appreciate it if you listed the labels in the requested order.
Reply text: A, C, B
